- Format: in vivo, healthy Japanese men
- condition_parameters: male, human, plasma, po, 10 mg, t½, single dose 10 mg, fed; geometric mean (%CV)
property: half-life (h)

compound	numeric_readout
CS(=O)(=O)n1cc2c(n1)CN([C@H]1CO[C@H](c3cc(F)ccc3F)[C@@H](N)C1)C2 [omarigliptin]	89.5

----------
- experimental_details: Urine pharmacokinetics
- Type: in vivo, healthy Japanese men
- condition_parameters: male, human, urine, po, 50 mg

smiles_notation	CL renal
CS(=O)(=O)n1cc2c(n1)CN([C@H]1CO[C@H](c3cc(F)ccc3F)[C@@H](N)C1)C2	38.3 mL/min
